Test system: Rattus norvegicus
Test: Antiinflammatory activity in Wistar rat assessed as inhibition of cotton pellet-induced granuloma at 75 mg/kg, po administered daily for 7 days and measured on day 8 relative to control
Type: functional
Catalogue of inhibition in vivo at 75 mg/kg readings, one per entry.
endpoint label: inhibition in vivo at 75 mg/kg (%)

molecule: CN1C(C(=O)Nc2ccccn2)=C(O)c2ccccc2S1(=O)=O
endpoint label: inhibition in vivo at 75 mg/kg
measured value: 67.9
--
molecule: O=C(NN1C(S)=Nc2sc3c(c2C1c1ccccc1)CCCC3)c1ccccc1 (stereo unspecified)
endpoint label: inhibition in vivo at 75 mg/kg
measured value: 41.8
--
molecule: CC(C)Cc1ccc(C(C)C(=O)O)cc1 (stereo unspecified)
endpoint label: inhibition in vivo at 75 mg/kg
measured value: 44.6
--
molecule: CC(=O)Oc1ccccc1C(=O)O
endpoint label: inhibition in vivo at 75 mg/kg
measured value: 30.1
--
molecule: CC(=O)NN1C(S)=Nc2sc3c(c2C1c1ccccc1)CCCC3 (stereo unspecified)
endpoint label: inhibition in vivo at 75 mg/kg
measured value: 39.9
--
molecule: CSC1=[N+](N)C(c2ccccc2)c2c(sc3c2CCCC3)N1.[I-] (stereo unspecified)
endpoint label: inhibition in vivo at 75 mg/kg
measured value: 29.9

---

System: Rattus norvegicus
Assay: Antiinflammatory activity in Wistar rat model of Freund's adjuvant-induced arthritis assessed as inhibition of arthritis by measuring reduction in paw volume at 75 mg/kg, po administered once daily for 8 days starting from day 7 post Freund's adjuvant treatment and measured after 18 days by mercury plethysmography relative to control
Type: functional
Rule: Met for inhibition in vivo at 75 mg/kg not less than 30%, Not met for anything less.

compound: CC(=O)Oc1ccccc1C(=O)O
answer label: Met
//
compound: CN1C(C(=O)Nc2ccccn2)=C(O)c2ccccc2S1(=O)=O
answer label: Met
//
compound: CSC1=[N+](N)C(c2ccccc2)c2c(sc3c2CCCC3)N1.[I-] (stereo not given)
answer label: Not met
//
compound: CC(=O)NN1C(S)=Nc2sc3c(c2C1c1ccccc1)CCCC3 (stereo not given)
answer label: Not met
//
compound: O=C(NN1C(S)=Nc2sc3c(c2C1c1ccccc1)CCCC3)c1ccccc1 (stereo not given)
answer label: Not met

---

Tested on: Rattus norvegicus
Test: Anti-ulcer activity in Wistar albino rat assessed as reduction in pylorus ligation induced ulcer at 250 mg/kg, ip pretreated for 1 hr followed by pylorus ligation and measured at 4 hrs post ligation
Format: functional
endpoint label: inhibition in vivo at 250 mg/kg (%)

molecule: CC(=C(C#N)C(=O)NN)[C@H]1CC[C@H]2[C@@H]3CC=C4CC(O)CC[C@]4(C)[C@H]3CC[C@]12C (some centres not stated)
measured value: 41.4
//
molecule: C[C@]12CC[C@H]3[C@@H](CC=C4CC(O)CC[C@@]43C)[C@@H]1CC[C@@H]2c1csc(N)c1C(=O)NN (some centres not stated)
measured value: 82.7
//
molecule: C[C@]12CC[C@H]3[C@@H](CC=C4C[C@H](O)CC[C@@]43C)[C@@H]1CC[C@@H]2c1csc(N)c1-c1nnc(SCC(=O)c2ccccc2)n1-c1ccccc1
measured value: 76.9
//
molecule: C[C@]12CC[C@H]3[C@@H](CC=C4CC(O)CC[C@@]43C)[C@@H]1CC[C@@H]2c1csc(N)c1C(=O)NNC(=S)Nc1ccccc1 (some centres not stated)
measured value: 41.4
//
molecule: COc1ccc(C2=NC3SC=C([C@H]4CC[C@H]5[C@@H]6CC=C7CC(O)CC[C@]7(C)[C@H]6CC[C@]45C)C3C(=O)N2N)cc1 (some centres not stated)
measured value: 91.9
//
molecule: C[C@]12CC[C@H]3[C@@H](CC=C4CC(O)CC[C@@]43C)[C@@H]1CC[C@@H]2c1csc(N)c1-c1nnc(S)n1-c1ccccc1 (some centres not stated)
measured value: 64.2
//
molecule: C[C@]12CC[C@H]3[C@@H](CC=C4CC(O)CC[C@@]43C)[C@@H]1CC[C@@H]2C1=CSC2N=CN(N)C(=O)C12 (some centres not stated)
measured value: 71.7
